Provide the reported pIC50 of each item.
molecular target: human recombinant P2X7 receptor (Homo sapiens); construct: expressed in transfected cells; experiment: YO-PRO assay: P2X7 receptor antagonistic activity in HEK cells stably expressing P2X7; type: cell-based; conditions: antagonistic activity with respect to the P2X7 receptor, read-out: IC50
// pIC50 is dimensionless: -log10 of concentration (M)

pIC50 reported for this molecule Cc1ncc(C(CNC(=O)c2ccc3[nH]ccc3c2Cl)N2CCOCC2)cn1 (single isomer, unassigned) [Example 3] : 8.10

Item: CCN(CC)C(CNC(=O)c1ccc2[nH]ccc2c1Cl)c1cnc(C)nc1 (racemic) | pIC50: 7.07

For reference, reported pIC50 for O=C(NCC(c1cccnc1)N1CCOCC1)c1ccc2[nH]ccc2c1Cl (racemic) stands at 7.49

Consider Cc1ncc(C(CNC(=O)c2ccc3[nH]ccc3c2C)N2CCOCC2)cn1 (racemic) [Example 100] . Its measured pIC50 is 7.72

pIC50 in this record for O=C(NCC(c1ccc(F)c(F)c1)N1CCOCC1)c1ccc2[nH]ccc2c1Cl (racemic) : 7.89

For reference, reported pIC50 for Cc1cnc(C(CNC(=O)c2ccc3[nH]ccc3c2Cl)N2CCCCC2)cn1 (racemic) stands at 6.63

Memo: O=C(NCC(c1ccnc(O)c1)N1CCCCC1)c1ccc2[nH]ccc2c1Cl (racemic) , reported pIC50: 6.71

For record COCCCc1cc(C(=O)NCC(c2cnc(C)nc2)N2CCOCC2)c(Cl)c2cc[nH]c12 (racemic) the listed pIC50 is 7.68

* * *

Molecular target: human recombinant P2X7 receptor (Homo sapiens)
Construct: expressed in transfected cells
Sequence (Q99572 1-595): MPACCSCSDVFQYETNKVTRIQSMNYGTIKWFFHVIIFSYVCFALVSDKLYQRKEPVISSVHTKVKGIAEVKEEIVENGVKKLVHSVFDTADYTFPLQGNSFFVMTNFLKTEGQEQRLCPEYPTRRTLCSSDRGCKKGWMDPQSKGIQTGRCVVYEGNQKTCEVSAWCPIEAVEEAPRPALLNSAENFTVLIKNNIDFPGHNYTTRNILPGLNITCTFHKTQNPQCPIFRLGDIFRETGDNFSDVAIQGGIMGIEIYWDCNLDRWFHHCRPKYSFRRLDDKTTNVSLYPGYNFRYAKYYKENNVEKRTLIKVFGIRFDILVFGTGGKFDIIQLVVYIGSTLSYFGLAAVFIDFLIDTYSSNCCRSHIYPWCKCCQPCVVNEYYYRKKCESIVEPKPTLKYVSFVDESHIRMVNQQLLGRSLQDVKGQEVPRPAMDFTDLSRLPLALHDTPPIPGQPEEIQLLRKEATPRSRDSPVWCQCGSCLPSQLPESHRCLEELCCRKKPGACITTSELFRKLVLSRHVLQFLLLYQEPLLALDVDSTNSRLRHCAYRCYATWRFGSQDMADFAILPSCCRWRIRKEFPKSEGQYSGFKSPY
Test: YO-PRO assay: P2X7 receptor antagonistic activity in HEK cells stably expressing P2X7
Assay type: cell-based
Conditions: antagonistic activity with respect to the P2X7 receptor, read-out: IC50
Exercise: for every item that follows, state its recorded pIC50.
The read-out pIC50 is expressed as -log10 of concentration in moles per litre.

Lab note: Cc1cnc(C(CNC(=O)c2ccc3[nH]ccc3c2Cl)N2CCOCC2)cn1 (racemic) [Example 63] gave pIC50 of 6.59

# compound Cc1ncc(C(CNC(=O)c2ccc3[nH]ccc3c2C)N2CCOCC2)cn1 (single isomer, unassigned) [Example 106] ; its pIC50 = 7.60

Reported pIC50 ( Cc1ncc(C(CNC(=O)c2ccc3[nH]ccc3c2Cl)N2CCC(C(=O)OC(C)(C)C)CC2)cn1 (racemic) [Example 75] ) = 6.59

Note to self: pIC50 recorded for O=C(NCC(c1ccc(Cl)nc1)C1CCCCC1)c1ccc2[nH]ccc2c1Cl (racemic) [Example 65] was 7.12

* * *

Provide the reported pIC50 of each item.
biological target: human recombinant P2X7 receptor (Homo sapiens, UniProt Q99572); construct: expressed in transfected cells; test: YO-PRO assay: P2X7 receptor antagonistic activity in HEK cells stably expressing P2X7; type: cell-based; conditions: antagonistic activity with respect to the P2X7 receptor, read-out: IC50
pIC50 (log units): -log10 of the concentration in mol/L.

// sample O=C(NCC(c1ccc(F)cc1F)N1CCCCC1)c1ccc2[nH]ccc2c1Cl (racemic) [Example 31] , its pIC50 was 6.60

Cc1ncc(C(CNC(=O)c2cc(C)c3[nH]ccc3c2C(F)(F)F)N2CCOCC2)cn1 (racemic) [Example 103] has a reported pIC50 of 7.59

In plain terms, Cc1ccc(C(CNC(=O)c2ccc3[nH]ccc3c2Cl)N2CCOCC2)cn1 (racemic) [Example 7] has a documented pIC50 of 7.72

Per the records, this compound ( CCOc1cc(C(=O)NCC(c2cnc(C)nc2)N2CCOCC2)c(Cl)c2cc[nH]c12 (racemic) [Example 110] ) has pIC50 equal to 7.89

Cc1ncc(C(CNC(=O)c2ccc3[nH]ccc3c2Cl)N2CCC(F)(F)C2)cn1 (racemic) [Example 82] has a reported pIC50 of 7.47

# pIC50 of Cc1ncc(C(CNC(=O)c2ccc3[nH]ccc3c2Cl)N2CCCOCC2)cn1 (racemic) [Example 81] = 7.59

Query Cc1ncc(C(CNC(=O)c2ccc3[nH]ccc3c2Cl)NC2CCCC2)cn1 (racemic) [Example 83] yields pIC50 of 6.79

Record Cc1ncc(C(CNC(=O)c2ccc3[nH]ccc3c2Cl)N2CC3CC2CO3)cn1 (stereo not shown) [Example 68] . Reported pIC50: 5.69

Lab note: measured pIC50 of CCCc1cc(C(=O)NCC(c2cnc(C)nc2)N2CCOCC2)c(Cl)c2cc[nH]c12 (racemic) [Example 111] was 7.74

Memo: O=C(NCC(c1cccnc1)N1CCCCC1)c1ccc2[nH]ccc2c1Cl (racemic) [Example 46] , reported pIC50: 7.41

Data point: Cc1ncc(C(CNC(=O)c2ccc3[nH]ccc3c2Cl)N2CCC(F)CC2)cn1 (racemic) [Example 78] ; pIC50 = 7.92

Reported pIC50 ( COc1ccc(C(CNC(=O)c2ccc3[nH]ccc3c2Cl)N2CCOCC2)cn1 (racemic) [Example 11] ) = 7.85

For record Cc1ncc(C(CNC(=O)c2ccc3[nH]c(C)cc3c2Cl)N2CCOCC2)cn1 (racemic) [Example 72] the listed pIC50 is 6.33

compound O=C(NCC(c1ccns1)N1CCCCC1)c1ccc2[nH]ccc2c1Cl (racemic) [Example 61] , pIC50 observed: 7.82

The value of pIC50 measured for the compound Cn1cc(C(CNC(=O)c2ccc3[nH]ccc3c2Cl)N2CCOCC2)cn1 (racemic) [Example 28] turned out to be 7.18

Form field pIC50, entry O=C(NCC(c1cncs1)N1CCOCC1)c1ccc2[nH]ccc2c1Cl (racemic) [Example 64] : 7.28

* * *

target: human recombinant P2X7 receptor (Homo sapiens, UniProt Q99572); construct: expressed in transfected cells; experiment: YO-PRO assay: P2X7 receptor antagonistic activity in HEK cells stably expressing P2X7; assay type: cell-based; details: antagonistic activity with respect to the P2X7 receptor, read-out: IC50
Answer each item with its documented IC50.
Remember to follow the number with its unit.

Lab book: IC50 of O=C(NCC(c1cccnn1)N1CCOCC1)c1ccc2[nH]ccc2c1Cl (racemic) noted as 1620 nM

Data point: Cn1cc(C(CNC(=O)c2ccc3[nH]ccc3c2Cl)N2CCCCC2)cn1 (racemic) ; IC50 = 161 nM

For reference, reported IC50 for Cc1ncc(C(CNC(=O)c2ccc3[nH]ccc3c2Cl)N2CCN(C(=O)OC(C)(C)C)CC2)cn1 (racemic) stands at 277 nM

IC50 measured on O=C(NCC(c1ccc(Oc2ccccc2)cc1)N1CCOCC1)c1ccc2[nH]ccc2c1Cl (racemic) = 102 nM

Just so you know, measured IC50 for O=C(NCC(c1cccnn1)N1CCCCC1)c1ccc2[nH]ccc2c1Cl (racemic) came out at 1010 nM

The value of IC50 measured for the molecule Cc1ncc(C(CNC(=O)c2cc(C(C)(C)O)c3[nH]ccc3c2Cl)N2CCOCC2)cn1 (racemic) turned out to be 149 nM

Reported IC50 ( Cc1ncc(C(CNC(=O)c2ccc3[nH]ccc3c2Cl)OC2CCOCC2)cn1 (racemic) ) = 91 nM

Kindly note the recorded IC50 for O=C(NCC(c1ccc(OC(F)(F)F)cc1)N1CCOCC1)c1ccc2[nH]ccc2c1Cl (racemic) , which is 134 nM

Note to self: IC50 recorded for O=C(NCC(c1cncs1)N1CCCCC1)c1ccc2[nH]ccc2c1Cl (racemic) was 48 nM

So, O=C(NCC(c1ccc(Cl)cc1F)N1CCOCC1)c1ccc2[nH]ccc2c1Cl (racemic) ? Its IC50 was 73 nM

Measured IC50, O=C(NCC(c1ccc(Cl)cc1Cl)N1CCOCC1)c1ccc2[nH]ccc2c1Cl (racemic) : 455 nM

The molecule listed as O=C(NCC(c1cnc(C(F)(F)F)nc1)N1CCC(F)(F)CC1)c1ccc2[nH]ccc2c1Cl (racemic) has a reported IC50 of 12 nM

Summary for this molecule, Cc1ncc(C(CNC(=O)c2cc(OCCOC(C)(C)C)c3[nH]ccc3c2Cl)N2CCOCC2)cn1 (racemic) : IC50 is 32 nM

The molecule CS(=O)(=O)N1CCC(C(CNC(=O)c2ccc3[nH]ccc3c2Cl)c2cccnc2)CC1 (racemic) showed IC50 equal to 56 nM

Measured IC50 of COc1cc(C(=O)NCC(c2cnc(C)nc2)N2CCOCC2)c(Cl)c2cc[nH]c12 (single isomer, unassigned) [Example 114] : 14 nM
